All figures here come from the supplement of paper PMC10065799.

Measured phosphorylation enrichment, listed per entry.
Biological target: FGFR3 (UniProt P22607)
Sequence (P22607 whole entry, looked up): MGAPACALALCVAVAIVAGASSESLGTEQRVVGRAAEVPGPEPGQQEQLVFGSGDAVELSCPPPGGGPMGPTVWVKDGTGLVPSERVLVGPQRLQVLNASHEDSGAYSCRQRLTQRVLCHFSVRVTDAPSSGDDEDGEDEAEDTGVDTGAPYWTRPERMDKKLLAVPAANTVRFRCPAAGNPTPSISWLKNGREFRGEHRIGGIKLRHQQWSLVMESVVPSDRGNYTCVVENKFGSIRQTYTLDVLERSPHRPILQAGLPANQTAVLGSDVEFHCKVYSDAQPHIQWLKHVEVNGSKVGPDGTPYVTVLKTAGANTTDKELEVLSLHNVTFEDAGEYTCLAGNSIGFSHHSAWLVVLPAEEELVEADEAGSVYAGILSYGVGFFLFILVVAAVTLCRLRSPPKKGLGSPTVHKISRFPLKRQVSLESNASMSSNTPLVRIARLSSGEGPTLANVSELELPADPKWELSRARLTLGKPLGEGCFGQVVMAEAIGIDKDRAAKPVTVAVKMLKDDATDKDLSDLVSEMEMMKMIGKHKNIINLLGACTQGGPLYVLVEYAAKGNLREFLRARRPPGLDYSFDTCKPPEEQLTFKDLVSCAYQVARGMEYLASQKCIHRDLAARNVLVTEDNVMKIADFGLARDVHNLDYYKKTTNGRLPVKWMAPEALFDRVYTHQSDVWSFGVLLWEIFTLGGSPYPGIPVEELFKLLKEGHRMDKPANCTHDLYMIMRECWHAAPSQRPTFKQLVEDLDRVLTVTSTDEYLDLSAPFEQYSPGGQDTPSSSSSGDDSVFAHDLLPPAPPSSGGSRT
Assay: phosphorylation enrichment, bacterial display (enrichment ratio); higher = better substrate or ligand; peptides without Tyr show the background;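 also: 11-residue human phosphosite peptides and single-mutation variants displayed on the E. coli surface, counted by deep sequencing, each peptide's frequency after selection divided by its frequency in the unselected input library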;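 also: frequency after pTyr selection over input frequency; kinase dosed for 20-30% of maximal phosphorylation in three min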
Returns: the value as a bare number; no unit string appended.

// known answers, use as guide
- ENPLDYGSAWA [AR_Y395]: 0.744
- KGEDFYSVTCH [FHL1_Y149_C150S]: 0.942
- CERFSYYGMKA [SLC15A2_Y60]: 2.88
- TTKGSYSLSVR [HCK_Y180]: 0.582
- YDGKEYDPVEA [MAPRE2_Y167]: 0.836
- FQEKGYNKEPR [CHRND_Y38_L42P]: 0.569

Record request: phosphorylation enrichment value, item YRDALYKFIVD [PHEX_Y250_M253I]
1.38

Record request: phosphorylation enrichment value, item GNHVSYFQSDG [CACNA1C_Y1757_YF]
0.488

Record request: phosphorylation enrichment value, item NVVNEYSSELE [FGB_Y172]
0.769

Record request: phosphorylation enrichment value, item SSMIDYNPLEK [MYOC_Y479]
0.595

Record request: phosphorylation enrichment value, item GTSLIYWTLFT [G6PC3_Y214]
4.45

Record request: phosphorylation enrichment value, item RDLTDYLMKIL [ACTA1_Y190]
0.896

Record request: phosphorylation enrichment value, item SFCFRYRCAPR [SUMF1_Y344_A348P_YF]
0.587

Record request: phosphorylation enrichment value, item LPSKDYAEVGR [HP_Y272]
0.895

----------
Measured phosphorylation enrichment, listed per entry.
Tested on: c-Src
Test: phosphorylation enrichment, bacterial display (enrichment ratio); higher = better substrate or ligand; peptides without Tyr show the background
Returns: the value as a bare number; no unit string appended.

- ADEQIYWQIAA [CSKtide_2014]: 4.66
- FCRHNYGAVES [HLA-DRB1_Y112_V114A_YF]: 0.527
- KGSEGYLAATY [NF1_Y2503]: 0.484
- RYLKDYGEFEV [GINS1_Y156_C152Y]: 1.69
- LFEDCYLLGTS [ASS1_Y87_R86C_YF]: 1.6

Record request: phosphorylation enrichment value, item AIIEEYLHLND [EIF4G1_Y1253]
0.411

Record request: phosphorylation enrichment value, item YDGGCYEQLFV [MC4R_Y41_S36Y]
2.71

Record request: phosphorylation enrichment value, item KREPQYSSHSS [SIPA1L3_Y1265_G1261R]
0.506

Record request: phosphorylation enrichment value, item TEAEPYYRSLR [NPHS1_Y1138]
0.512

Record request: phosphorylation enrichment value, item EDGRLYAVKCS [PKMYT1_Y136_R140C]
0.63

Record request: phosphorylation enrichment value, item NHFKIHNLCAE [PTEN_Y68_Y68H_YF]
0.432

----------
Target: EPHB2 (UniProt P29323)
Sequence (P29323 whole entry, looked up): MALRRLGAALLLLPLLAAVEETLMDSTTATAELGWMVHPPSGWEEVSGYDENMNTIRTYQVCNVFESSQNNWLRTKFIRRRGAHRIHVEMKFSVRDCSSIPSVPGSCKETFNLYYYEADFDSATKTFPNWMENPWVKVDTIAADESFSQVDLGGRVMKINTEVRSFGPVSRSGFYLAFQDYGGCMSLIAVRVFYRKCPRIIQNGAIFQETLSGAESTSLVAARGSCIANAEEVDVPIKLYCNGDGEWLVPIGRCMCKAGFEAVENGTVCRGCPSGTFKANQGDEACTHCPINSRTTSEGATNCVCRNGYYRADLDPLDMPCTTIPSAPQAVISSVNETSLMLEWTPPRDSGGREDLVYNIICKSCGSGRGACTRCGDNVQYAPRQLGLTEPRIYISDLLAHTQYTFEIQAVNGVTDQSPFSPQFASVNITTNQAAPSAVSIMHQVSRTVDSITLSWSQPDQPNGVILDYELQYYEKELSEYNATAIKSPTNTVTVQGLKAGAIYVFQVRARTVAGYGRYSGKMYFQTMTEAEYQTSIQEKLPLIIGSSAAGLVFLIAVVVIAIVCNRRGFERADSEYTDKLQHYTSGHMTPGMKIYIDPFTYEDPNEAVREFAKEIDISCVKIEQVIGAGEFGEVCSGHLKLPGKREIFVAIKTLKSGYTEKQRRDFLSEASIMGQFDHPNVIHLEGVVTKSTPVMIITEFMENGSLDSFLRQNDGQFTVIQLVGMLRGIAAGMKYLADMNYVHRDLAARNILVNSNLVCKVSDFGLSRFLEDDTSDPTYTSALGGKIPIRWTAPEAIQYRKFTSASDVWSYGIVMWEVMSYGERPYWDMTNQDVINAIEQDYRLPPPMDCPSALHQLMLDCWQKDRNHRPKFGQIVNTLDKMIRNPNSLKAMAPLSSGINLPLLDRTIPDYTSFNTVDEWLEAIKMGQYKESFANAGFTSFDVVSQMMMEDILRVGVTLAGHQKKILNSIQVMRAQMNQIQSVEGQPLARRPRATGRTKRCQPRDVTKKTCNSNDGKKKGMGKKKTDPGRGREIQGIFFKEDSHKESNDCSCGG
Test: phosphorylation enrichment, bacterial display (enrichment ratio); higher = better substrate or ligand; peptides without Tyr show the background
Think of 0.9 as a floor: if phosphorylation enrichment stands on it or above, it is Criterion met; beneath it, Criterion not met.

• ILILKYPIEHG [ACTA1_Y71_T68I] = Criterion not met

Check this sequence for phosphorylation enrichment at or above 0.9: QDEHGYISWCF [HSPB1_Y133_R136W]
Criterion not met

Check this sequence for phosphorylation enrichment at or above 0.9: VTNHIYTWVDP [DFNB31_Y234]
Criterion met

Check this sequence for phosphorylation enrichment at or above 0.9: CDLTDYLMKIL [ACTA1_Y190_R185C]
Criterion not met

Check this sequence for phosphorylation enrichment at or above 0.9: FFRKVYHLASV [RBL1_Y796_YF]
Criterion not met

Check this sequence for phosphorylation enrichment at or above 0.9: QEKKGYFEDRR [GLUL_Y336]
Criterion not met
